The reader will find reported IC50 values listed item by item below.
# EXPERIMENTAL TARGET: OR10/OR7 (Anopheles gambiae, UniProt B5U0U7+Q7QCC7)
# Sequence (Q7QCC7 whole entry): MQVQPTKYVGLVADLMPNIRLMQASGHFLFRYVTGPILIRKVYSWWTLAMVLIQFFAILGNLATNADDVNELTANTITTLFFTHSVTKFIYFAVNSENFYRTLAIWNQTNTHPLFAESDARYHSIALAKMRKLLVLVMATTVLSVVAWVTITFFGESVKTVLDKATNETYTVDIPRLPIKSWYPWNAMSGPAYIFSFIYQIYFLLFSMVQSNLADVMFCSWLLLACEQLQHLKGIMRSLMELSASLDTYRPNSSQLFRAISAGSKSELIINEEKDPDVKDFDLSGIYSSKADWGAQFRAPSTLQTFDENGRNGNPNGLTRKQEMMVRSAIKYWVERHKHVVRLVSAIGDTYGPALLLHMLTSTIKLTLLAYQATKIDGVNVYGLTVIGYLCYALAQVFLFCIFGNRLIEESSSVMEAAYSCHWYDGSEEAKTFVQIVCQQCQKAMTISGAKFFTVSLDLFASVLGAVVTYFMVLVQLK
# Sequence (B5U0U7 entry or part of it): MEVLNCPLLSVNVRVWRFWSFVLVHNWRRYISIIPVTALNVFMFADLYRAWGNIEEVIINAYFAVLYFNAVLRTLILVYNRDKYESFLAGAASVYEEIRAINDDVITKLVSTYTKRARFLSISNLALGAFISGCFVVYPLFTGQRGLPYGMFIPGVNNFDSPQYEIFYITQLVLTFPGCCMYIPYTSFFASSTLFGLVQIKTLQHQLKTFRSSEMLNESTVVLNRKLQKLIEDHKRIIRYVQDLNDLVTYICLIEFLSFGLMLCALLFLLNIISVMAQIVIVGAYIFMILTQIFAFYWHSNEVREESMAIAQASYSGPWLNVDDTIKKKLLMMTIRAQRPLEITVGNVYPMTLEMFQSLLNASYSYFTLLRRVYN
# EXPERIMENTAL PROTOCOL: Ca2+-imaging of stable HEK293T cell line OR10/OR7
# Type: cell-based
# CONDITION PARAMETERS: Table B; read-out: IC50 OR10

# COMPOUND, IC50
rows = [
    ("COCCNC(=O)c1ccc(CSc2nnc(-c3ccc(C)cc3)n2-c2ccccc2C)cc1", "> 1000 nM"),
    ("CCN(CC)C(=O)Oc1ccc2c(ccn2Cc2cccc(C)c2)c1NC(=O)[C@H](C)OC(C)=O", "< 100 nM"),
    ("COCCCN(CC(=O)N1CCc2sccc2C1COc1cccc(OC)c1)C(=O)c1ccccc1OC (stereo not drawn)", "> 1000 nM"),
    ("Cc1ccc(-c2nnc(SCCCC(=O)N3CCN(C(=O)c4cccc(F)c4)C(C)C3)n2-c2ccc(C)cc2)cc1 (stereo not drawn)", "< 100 nM"),
    ("COc1nc(OCC#N)nc(N2CCCCC2)n1", "> 1000 nM"),
    ("O=C(c1c(F)c(F)cc(F)c1F)N1CCOC(Cc2ccccc2)C1 (stereo not drawn)", "> 1000 nM"),
    ("CC(C)N(Cc1nccn1Cc1c(F)cccc1Cl)C(=O)c1ccc(Cl)cc1", "100 to 1000 nM"),
    ("COCCCN(CC(=O)N1CCc2sccc2C1c1ccc(OC)cc1)C(=O)C(C)(C)CCl (stereo not drawn)", "< 100 nM"),
    ("Cc1nn(-c2ccc(Cl)cc2)c(C)c1C(=O)NCc1ccccn1", "> 1000 nM"),
    ("C=CCN(Cc1nccn1Cc1ccccc1F)C(=O)c1cccc(F)c1", "< 100 nM"),
    ("COc1cc(OC)cc(C2NC(=O)N(C)C3=C2C(=O)N(C2CCCCC2)C3)c1 (stereo not drawn)", "< 100 nM"),
    ("C=CCN(Cc1nccn1Cc1ccccc1C)C(=O)CC(C)C", "< 100 nM"),
    ("Cc1cccc(Cn2ccnc2CN(C(=O)c2ccccc2F)C2CCCCC2)c1", "< 100 nM"),
    ("N#Cc1ccccc1C(=O)N1CCOC(COCc2c(Cl)cccc2Cl)C1 (stereo not drawn)", "> 1000 nM"),
    ("C=CCN(Cc1nccn1Cc1ccccc1F)C(=O)C1CCCC1", "< 100 nM"),
    ("O=C(c1ccco1)N(Cc1nccn1Cc1c(F)cccc1Cl)C1CC1", "< 100 nM"),
    ("CCNc1nc(NC(C)C)nc(N(C#N)Cc2ccccc2)n1", "> 1000 nM"),
    ("O=C(c1ccco1)N(Cc1ccco1)Cc1nccn1Cc1ccccc1F", "< 100 nM"),
]

* * *

# EXPERIMENTAL TARGET: serotonin receptor (5HT3) (Mus musculus)
# Construct: Full-length cDNAs for mosquito (Anopheles gambiae) odorant receptor; expressed in transfected cells
# Sequence (P23979 24-489): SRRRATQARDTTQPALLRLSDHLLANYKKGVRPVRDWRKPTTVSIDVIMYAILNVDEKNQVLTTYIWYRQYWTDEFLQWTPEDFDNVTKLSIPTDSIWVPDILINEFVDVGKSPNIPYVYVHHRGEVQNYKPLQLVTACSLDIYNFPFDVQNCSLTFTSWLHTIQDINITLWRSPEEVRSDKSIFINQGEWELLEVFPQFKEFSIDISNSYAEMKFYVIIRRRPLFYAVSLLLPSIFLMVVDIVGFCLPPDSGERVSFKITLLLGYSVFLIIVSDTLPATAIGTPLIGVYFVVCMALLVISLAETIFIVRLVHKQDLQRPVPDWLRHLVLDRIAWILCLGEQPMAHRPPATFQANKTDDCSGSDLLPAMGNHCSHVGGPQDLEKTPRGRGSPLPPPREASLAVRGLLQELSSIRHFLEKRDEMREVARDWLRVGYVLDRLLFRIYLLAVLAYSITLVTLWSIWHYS
# EXPERIMENTAL PROTOCOL: Ca2+-imaging of stable Flip-In T-Rex cell line 5HT3
# Assay type: cell-based

# STRUCTURE AS SMILES, IC50
data = [
    ("CC(C)Nc1nc(Cl)nc(NCc2ccccc2)n1", "> 50 µM"),
    ("CC(C)Nc1nc(NC(C)C)nc(C(F)(F)F)n1", "> 20 µM"),
    ("CC(C)Nc1nc(Cl)nc(N(C)C(C)C)n1", "> 20 µM"),
    ("Cc1nc(NC(C)C)nc(NC(C)C)n1", "> 20 µM"),
]

* * *

# EXPERIMENTAL TARGET: Or47a/Or83b (Drosophila melanogaster, UniProt P81921+Q9VNB5)
# Construct: Full-length cDNAs for mosquito (Anopheles gambiae) odorant receptor (OR1, OR2, OR7, OR8, OR28), and fly (Drosophila melanogaster) odorant receptor (Or47a, Or83b); expressed in transfected cells
# Sequence (P81921 whole entry): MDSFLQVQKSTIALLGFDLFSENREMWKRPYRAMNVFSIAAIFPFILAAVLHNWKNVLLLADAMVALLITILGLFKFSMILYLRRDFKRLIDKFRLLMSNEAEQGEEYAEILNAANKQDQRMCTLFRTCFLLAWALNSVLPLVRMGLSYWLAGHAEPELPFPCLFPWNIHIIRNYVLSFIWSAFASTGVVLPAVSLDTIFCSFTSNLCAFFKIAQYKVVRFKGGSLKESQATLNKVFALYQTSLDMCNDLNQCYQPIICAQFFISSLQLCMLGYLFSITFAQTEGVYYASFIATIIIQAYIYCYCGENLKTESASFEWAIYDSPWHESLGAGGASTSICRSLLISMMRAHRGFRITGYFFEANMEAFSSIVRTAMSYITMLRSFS
# Sequence (Q9VNB5 whole entry): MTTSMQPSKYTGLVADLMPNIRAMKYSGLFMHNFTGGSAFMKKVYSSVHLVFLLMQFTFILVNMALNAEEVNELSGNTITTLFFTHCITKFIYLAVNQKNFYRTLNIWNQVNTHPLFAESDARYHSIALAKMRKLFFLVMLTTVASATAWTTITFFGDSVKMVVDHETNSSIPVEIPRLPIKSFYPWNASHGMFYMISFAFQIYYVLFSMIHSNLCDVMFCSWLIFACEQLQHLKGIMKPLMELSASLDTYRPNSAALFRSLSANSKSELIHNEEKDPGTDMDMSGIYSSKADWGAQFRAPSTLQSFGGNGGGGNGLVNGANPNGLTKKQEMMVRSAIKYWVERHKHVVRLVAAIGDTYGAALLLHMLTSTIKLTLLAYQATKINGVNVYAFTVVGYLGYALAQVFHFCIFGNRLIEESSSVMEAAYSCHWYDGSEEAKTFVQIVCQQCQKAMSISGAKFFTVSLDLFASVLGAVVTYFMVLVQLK
# EXPERIMENTAL PROTOCOL: Ca2+-imaging of stable Flip-In T-Rex cell line Or47a/Or83b
# Format: cell-based
# CONDITION PARAMETERS: compound applied at 4 μM; read-out: Percent Inhibition OR47a OR83b
READOUT: inhibition at 4 µM

# COMPOUND, EXPERIMENTAL TARGET, READOUT, READOUT VALUE
rows = [
    ("O=C1CN(S(=O)(=O)c2c(F)cc(F)cc2F)CC2c3cccc(F)c3CCN12 (centres unmarked) [RU-0076832]", "Or47a/Or83b (Drosophila melanogaster, UniProt P81921+Q9VNB5)", "inhibition at 4 µM", "< 25%"),
    ("C=C[C@@](C)(O)CCC1C(=C)CCC2[C@@](C)(CO)CCC[C@]12C (some centres unmarked) [RU-0001327]", "Or47a/Or83b (Drosophila melanogaster, UniProt P81921+Q9VNB5)", "inhibition at 4 µM", "< 25%"),
    ("O=C(c1cccnc1Cl)N1CCOC(COCc2c(Cl)cccc2Cl)C1 (centres unmarked) [RU-0050372]", "Or47a/Or83b (Drosophila melanogaster, UniProt P81921+Q9VNB5)", "inhibition at 4 µM", "26 to 50%"),
    ("CCN(CC)C(=O)Oc1ccc2c(ccn2Cc2cccc(C)c2)c1NC(=O)[C@H](C)OC(C)=O [RU-0075468]", "Or47a/Or83b (Drosophila melanogaster, UniProt P81921+Q9VNB5)", "inhibition at 4 µM", "< 25%"),
    ("COc1ccccc1C(=O)C1CCCN(C(=O)c2cccc(N3CCOCC3)c2)C1 (centres unmarked) [RU-0029350]", "Or47a/Or83b (Drosophila melanogaster, UniProt P81921+Q9VNB5)", "inhibition at 4 µM", "51 to 74%"),
    ("CCOC(=O)CCC(=O)N(CCc1ccccc1)CC(=O)Nc1cc(C(C)(C)C)nn1-c1ccccc1C [RU-0072462]", "Or47a/Or83b (Drosophila melanogaster, UniProt P81921+Q9VNB5)", "inhibition at 4 µM", "26 to 50%"),
    ("COCCN(Cc1cc(Cl)ccc1OS(=O)(=O)c1ccc(F)cc1)C(=O)C1CCC1 [RU-0035287]", "Or47a/Or83b (Drosophila melanogaster, UniProt P81921+Q9VNB5)", "inhibition at 4 µM", "51 to 74%"),
    ("COc1ccc(-c2nnc(SCc3ccc(C#N)cc3)n2-c2ccc(C)cc2)cc1 [RU-0046426]", "Or47a/Or83b (Drosophila melanogaster, UniProt P81921+Q9VNB5)", "inhibition at 4 µM", "26 to 50%"),
    ("CCN(C)c1onc(-c2ccccc2)c1CN(CCCOC)C(=O)c1ccco1 [RU-0051926]", "Or47a/Or83b (Drosophila melanogaster, UniProt P81921+Q9VNB5)", "inhibition at 4 µM", "26 to 50%"),
    ("Cc1ccccc1C(=O)N[C@@H]1CCCCC1NC(=O)C1CCN(C(=O)C23CC4CC(CC(C4)C2)C3)CC1 (some centres unmarked) [RU-0045351]", "Or47a/Or83b (Drosophila melanogaster, UniProt P81921+Q9VNB5)", "inhibition at 4 µM", "26 to 50%"),
    ("COCCCN(Cc1c(-c2ccccc2)noc1N(C)C(C)C)C(=O)c1ccccc1OC [RU-0037003]", "Or47a/Or83b (Drosophila melanogaster, UniProt P81921+Q9VNB5)", "inhibition at 4 µM", "< 25%"),
    ("CCc1cc(N2CCCC2)nc(SCc2ccc(C(=O)N3CCOCC3)o2)n1 [RU-0047568]", "Or47a/Or83b (Drosophila melanogaster, UniProt P81921+Q9VNB5)", "inhibition at 4 µM", "26 to 50%"),
    ("COc1ccccc1CCC(=O)N1CCC(CCC(=O)Nc2ccccc2)CC1 [RU-0032455]", "Or47a/Or83b (Drosophila melanogaster, UniProt P81921+Q9VNB5)", "inhibition at 4 µM", "51 to 74%"),
    ("CCOC(=O)C1CCCN(C(=O)c2csc(CSc3nnc(-c4cccc(OC)c4)n3-c3ccc(C)cc3)n2)C1 (centres unmarked) [RU-0071628]", "Or47a/Or83b (Drosophila melanogaster, UniProt P81921+Q9VNB5)", "inhibition at 4 µM", "51 to 74%"),
    ("COCCCN(Cc1c(-c2ccccc2)noc1N1CCCC1)C(=O)c1ccc(F)cc1 [RU-0037386]", "Or47a/Or83b (Drosophila melanogaster, UniProt P81921+Q9VNB5)", "inhibition at 4 µM", "51 to 74%"),
    ("CC(C)CN(Cc1nccn1Cc1c(F)cccc1Cl)C(=O)c1ccc(F)cc1 [RU-0048054]", "Or47a/Or83b (Drosophila melanogaster, UniProt P81921+Q9VNB5)", "inhibition at 4 µM", "26 to 50%"),
    ("Cc1ccccc1C(=O)N[C@@H]1CCCCC1NC(=O)C1CCN(C(=O)c2cc(C(F)(F)F)cc(C(F)(F)F)c2)CC1 (some centres unmarked) [RU-0045778]", "Or47a/Or83b (Drosophila melanogaster, UniProt P81921+Q9VNB5)", "inhibition at 4 µM", "26 to 50%"),
]
